- experimental-system: human cathepsin L (hCatL) (Homo sapiens, UniProt P07711)
- Sequence (P07711 114-333): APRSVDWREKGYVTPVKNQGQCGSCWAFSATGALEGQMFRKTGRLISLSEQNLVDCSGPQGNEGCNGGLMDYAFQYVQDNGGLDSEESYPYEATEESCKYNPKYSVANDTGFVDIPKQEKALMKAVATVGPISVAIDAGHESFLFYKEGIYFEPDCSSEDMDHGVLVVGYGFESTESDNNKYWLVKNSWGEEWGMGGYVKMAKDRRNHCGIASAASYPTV
- test-name: Enzyme assay towards hCatL
- Assay type: biochemical
Kindly state kinact for each of the entries shown.
API: value field is a number in s⁻¹; no unit string.

Req: Output measured kinact for this item: CC(=O)/C=C/[C@H](CCc1ccccc1)NC(=O)[C@H](Cc1ccccc1)NC(=O)Nc1ccc(Cl)cc1
Resp: 1.25e-05

Req: Output measured kinact for this item: CC(=O)/C=C/[C@H](CCc1ccccc1)NC(=O)[C@H](Cc1ccccc1)NC(=O)Nc1ccccc1
Resp: 1e-05

Req: Output measured kinact for this item: CC(=O)/C=C/[C@H](CCc1ccccc1)NC(=O)[C@H](CC(C)C)NC(=O)Nc1ccc(Cl)cc1C
Resp: 1.42e-05

Req: Output measured kinact for this item: CC(=O)/C=C/[C@H](CCc1ccccc1)NC(=O)[C@H](Cc1ccccc1)NC(=O)Nc1cccc2ccccc12
Resp: 1.08e-05

Req: Output measured kinact for this item: CC(=O)/C=C/[C@H](CCc1ccccc1)NC(=O)[C@H](Cc1ccccc1)NC(=O)Nc1c(F)cccc1F
Resp: 1.17e-05

Req: Output measured kinact for this item: CC(=O)/C=C/[C@H](CCc1ccccc1)NC(=O)[C@H](Cc1ccccc1)NC(=O)Nc1ccc(C)cc1
Resp: 7.5e-06

Req: Output measured kinact for this item: CC(=O)/C=C/[C@H](CCc1ccccc1)NC(=O)[C@H](Cc1ccccc1)NC(=O)Nc1ccc(Cl)cc1C
Resp: 9.17e-06

Req: Output measured kinact for this item: COc1ccc(NC(=O)N[C@@H](Cc2ccccc2)C(=O)N[C@H](/C=C/C(C)=O)CCc2ccccc2)cc1
Resp: 1.33e-05

Req: Output measured kinact for this item: CC(=O)/C=C/[C@H](CCc1ccccc1)NC(=O)[C@H](Cc1ccccc1)NC(=O)Nc1ccc(Cl)cc1C(F)(F)F
Resp: 9.17e-06

Req: Output measured kinact for this item: CC(=O)/C=C/[C@H](CCc1ccccc1)NC(=O)[C@H](Cc1ccccc1)NC(=O)Nc1ccc(F)cc1
Resp: 1e-05

Req: Output measured kinact for this item: CC(=O)/C=C/[C@H](CCc1ccccc1)NC(=O)[C@H](CC(C)C)NC(=O)Nc1ccc(C)cc1
Resp: 2.25e-05

###

Kindly state EC50 for each of the entries shown.
- Test system: T. b. brucei
- test-name: Antitrypanosomal activity against cultured T. b. brucei (ATPlite assay)
- Assay type: cell-based
- measurement-conditions: Trypanosoma brucei, 24 h
API: value field is a number in nM; no unit string.

Req: Output measured EC50 for this item: CC(=O)/C=C/[C@H](CCc1ccccc1)NC(=O)[C@H](Cc1ccccc1)NC(=O)Nc1ccc(F)cc1 [compound 4]
Resp: 1510

Req: Output measured EC50 for this item: COc1ccc(NC(=O)N[C@@H](Cc2ccccc2)C(=O)N[C@H](/C=C/C(C)=O)CCc2ccccc2)cc1 [compound 2]
Resp: 2080

Req: Output measured EC50 for this item: CC(=O)/C=C/[C@H](CCc1ccccc1)NC(=O)[C@H](Cc1ccccc1)NC(=O)Nc1ccc(Cl)cc1 [compound 6]
Resp: 1500

Req: Output measured EC50 for this item: CC(=O)/C=C/[C@H](CCc1ccccc1)NC(=O)[C@H](CC(C)C)NC(=O)Nc1ccc(Cl)cc1C [compound 26]
Resp: 1120

Req: Output measured EC50 for this item: CC(=O)/C=C/[C@H](CCc1ccccc1)NC(=O)[C@H](Cc1ccccc1)NC(=O)Nc1ccc(C)cc1 [compound 3]
Resp: 1390

Req: Output measured EC50 for this item: CC(=O)/C=C/[C@H](CCc1ccccc1)NC(=O)[C@H](Cc1ccccc1)NC(=O)Nc1ccc(Cl)cc1C(F)(F)F [compound 8]
Resp: 1280

Req: Output measured EC50 for this item: CC(=O)/C=C/[C@H](CCc1ccccc1)NC(=O)[C@H](Cc1ccccc1)NC(=O)Nc1c(F)cccc1F [compound 5]
Resp: 3200

Req: Output measured EC50 for this item: CC(=O)/C=C/[C@H](CCc1ccccc1)NC(=O)[C@H](Cc1ccccc1)NC(=O)Nc1ccccc1 [compound 1]
Resp: 19800

Req: Output measured EC50 for this item: CC(=O)/C=C/[C@H](CCc1ccccc1)NC(=O)[C@H](Cc1ccccc1)NC(=O)Nc1ccc(Cl)cc1C [compound 7]
Resp: 1650

Req: Output measured EC50 for this item: CC(=O)/C=C/[C@H](CCc1ccccc1)NC(=O)[C@H](CC(C)C)NC(=O)Nc1ccc(C)cc1 [compound 25]
Resp: 1540

Req: Output measured EC50 for this item: CC(=O)/C=C/[C@H](CCc1ccccc1)NC(=O)[C@H](Cc1ccccc1)NC(=O)Nc1cccc2ccccc12 [compound 9]
Resp: 2280

###

- experimental-system: human cathepsin L (hCatL) (Homo sapiens)
- test-name: Enzyme assay towards hCatL
- Assay type: biochemical
Kindly state hCatL k2nd for each of the entries shown.

Req: Output measured hCatL k2nd for this item: CC(=O)/C=C/[C@H](CCc1ccccc1)NC(=O)[C@H](Cc1ccccc1)NC(=O)Nc1ccc(C)cc1 [compound 3]
Resp: 360 ± 106 x 103M-1 min-1

Req: Output measured hCatL k2nd for this item: CC(=O)/C=C/[C@H](CCc1ccccc1)NC(=O)[C@H](Cc1ccccc1)NC(=O)Nc1ccc(Cl)cc1C [compound 7]
Resp: 3110 ± 160 x 103M-1 min-1

Req: Output measured hCatL k2nd for this item: CC(=O)/C=C/[C@H](CCc1ccccc1)NC(=O)[C@H](Cc1ccccc1)NC(=O)Nc1ccccc1 [compound 1]
Resp: 5920 ± 150 x 103M-1 min-1

Req: Output measured hCatL k2nd for this item: CC(=O)/C=C/[C@H](CCc1ccccc1)NC(=O)[C@H](Cc1ccccc1)NC(=O)Nc1cccc2ccccc12 [compound 9]
Resp: 12820 ± 1050 x 103M-1 min-1

Req: Output measured hCatL k2nd for this item: CC(=O)/C=C/[C@H](CCc1ccccc1)NC(=O)[C@H](Cc1ccccc1)NC(=O)Nc1ccc(F)cc1 [compound 4]
Resp: 5880 ± 120 x 103M-1 min-1

Req: Output measured hCatL k2nd for this item: COc1ccc(NC(=O)N[C@@H](Cc2ccccc2)C(=O)N[C@H](/C=C/C(C)=O)CCc2ccccc2)cc1 [compound 2]
Resp: 9 ± 1 x 103M-1 min-1

Req: Output measured hCatL k2nd for this item: CC(=O)/C=C/[C@H](CCc1ccccc1)NC(=O)[C@H](Cc1ccccc1)NC(=O)Nc1ccc(Cl)cc1 [compound 6]
Resp: 321 ± 152 x 103M-1 min-1

###

- experimental-system: rhodesain (Trypanosoma brucei rhodesiense, UniProt Q95PM0)
- Sequence (Q95PM0 entry or part of it): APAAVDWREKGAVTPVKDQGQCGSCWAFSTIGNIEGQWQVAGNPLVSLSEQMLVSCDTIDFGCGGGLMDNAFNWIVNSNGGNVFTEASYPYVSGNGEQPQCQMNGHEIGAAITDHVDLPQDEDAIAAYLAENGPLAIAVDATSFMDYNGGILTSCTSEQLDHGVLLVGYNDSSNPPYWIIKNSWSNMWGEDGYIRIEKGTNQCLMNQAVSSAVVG
- test-name: Rhodesain fluorogenic enzyme assay (Cbz-Phe-Arg-AMC)
- Type: biochemical
- measurement-conditions: k2nd = kinact/Ki
parameter: Rhodesain k2nd

Req: Output measured Rhodesain k2nd for this item: CC(=O)/C=C/[C@H](CCc1ccccc1)NC(=O)[C@H](Cc1ccccc1)NC(=O)Nc1ccc(F)cc1 [compound 4]
Resp: 2480 ± 50 ×10^3 M^–1 min^–1

Req: Output measured Rhodesain k2nd for this item: CC(=O)/C=C/[C@H](CCc1ccccc1)NC(=O)[C@H](Cc1ccccc1)NC(=O)Nc1cccc2ccccc12 [compound 9]
Resp: 4170 ± 1360 ×10^3 M^–1 min^–1

Req: Output measured Rhodesain k2nd for this item: COc1ccc(NC(=O)N[C@@H](Cc2ccccc2)C(=O)N[C@H](/C=C/C(C)=O)CCc2ccccc2)cc1 [compound 2]
Resp: 5820 ± 490 ×10^3 M^–1 min^–1

Req: Output measured Rhodesain k2nd for this item: CC(=O)/C=C/[C@H](CCc1ccccc1)NC(=O)[C@H](Cc1ccccc1)NC(=O)Nc1ccc(Cl)cc1C(F)(F)F [compound 8]
Resp: 6050 ± 790 ×10^3 M^–1 min^–1

Req: Output measured Rhodesain k2nd for this item: CC(=O)/C=C/[C@H](CCc1ccccc1)NC(=O)[C@H](Cc1ccccc1)NC(=O)Nc1c(F)cccc1F [compound 5]
Resp: 2030 ± 230 ×10^3 M^–1 min^–1

Req: Output measured Rhodesain k2nd for this item: CC(=O)/C=C/[C@H](CCc1ccccc1)NC(=O)[C@H](Cc1ccccc1)NC(=O)Nc1ccc(Cl)cc1 [compound 6]
Resp: 2990 ± 300 ×10^3 M^–1 min^–1

###

Kindly state Ki for each of the entries shown.
API: value field is a number in nM; no unit string.

Req: Look up UniProt:P07711 data: Ki of CC(=O)/C=C/[C@H](CCc1ccccc1)NC(=O)[C@H](CC(C)C)NC(=O)Nc1ccc(Cl)cc1C , then report it.
Resp: 0.07

Req: Look up UniProt:P07711 data: Ki of CC(=O)/C=C/[C@H](CCc1ccccc1)NC(=O)[C@H](Cc1ccccc1)NC(=O)Nc1ccc(Cl)cc1C(F)(F)F , then report it.
Resp: 2.27

Req: Look up UniProt:P07711 data: Ki of COc1ccc(NC(=O)N[C@@H](Cc2ccccc2)C(=O)N[C@H](/C=C/C(C)=O)CCc2ccccc2)cc1 , then report it.
Resp: 81.9

Req: Look up UniProt:P07711 data: Ki of CC(=O)/C=C/[C@H](CCc1ccccc1)NC(=O)[C@H](Cc1ccccc1)NC(=O)Nc1ccc(Cl)cc1C , then report it.
Resp: 0.18

The measured values listed here are drawn from paper PMC9290002.
